molecular target: Human CCR8 (C-C chemokine receptor type 8) expressed on CHO-S cells (human, UniProt P51685 1-355); experiment: cell-based or functional assay
Sequence (P51685 whole entry): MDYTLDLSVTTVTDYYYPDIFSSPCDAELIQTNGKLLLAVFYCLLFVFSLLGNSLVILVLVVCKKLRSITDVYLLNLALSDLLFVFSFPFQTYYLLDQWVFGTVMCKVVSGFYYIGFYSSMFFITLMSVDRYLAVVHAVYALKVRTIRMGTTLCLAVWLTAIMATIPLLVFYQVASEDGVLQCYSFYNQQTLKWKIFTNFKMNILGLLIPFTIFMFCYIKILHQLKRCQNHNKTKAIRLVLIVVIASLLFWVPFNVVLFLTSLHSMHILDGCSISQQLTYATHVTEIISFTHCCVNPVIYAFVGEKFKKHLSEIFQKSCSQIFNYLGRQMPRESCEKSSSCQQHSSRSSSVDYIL
Measured Endpoint: ADCC (Fold Induction) (fold)

• 7B16.008 (CDR H3 alanine scan variant of 7-B16) (antibody, human IgG1, kappa, V domains shown) VH: EVQLVESGGGLVQPKGSLKLSCAASGFTFNTYAMNWVRQAPGKGLEWVARIRSKSNNYATYYADSVKDRFTISRDDSQSMLYLQMNNLKTEDTAMYYCVRGLLRARFFDVWGAGTTVTVSS VL: DIVMTQAEPSVPVTPGESISISCRSSKSLLHSNGNTYLYWFLQRPGQSPQLLIYRMSNLASGVPDRFSGSGSGTAFTLRISRVEAEDVGVYYCMQHLEYPFTFGGGTKLEIKR = 24.8
